experiment: adipocyte viability effects, profiling panel, cell-based, 3T3-L1 adipocytes, calcein-AM fluorescence, 48 h, basal (AID 1163); conditions: 3T3-L1 adipocytes viability, higher = more signal; note: test concentration not given here
measure: z-score
Could you keep your reply to the number by itself?

Previously resolved entries follow.
COc1cc(C(O)C2C=CC3C(=O)N(c4ccccc4)C(=O)C3N2Nc2ccc(C#N)cc2)cc(OC)c1OC (centres undefined); 0.0434
C=C[C@H](COC(C)=O)N(Cc1ccc(OC(C)=O)c(OC)c1)S(=O)(=O)c1ccc(Br)cc1; 0.139
CCCCC=C[C@@H](NC(=O)c1cccs1)c1ccccc1; -0.906

Here is another compound to look at.
Ask | Recorded z-score for CCC(CC)C(O)C1C=CC2C(=O)N(c3ccccc3)C(=O)C2N1Nc1ccc(C#N)cc1 (centres undefined) , please?
Reply | -0.534

###

Recorded composite z-score, one value per entry.
test system: Noggin (protein binding on small-molecule microarray); test: Noggin binders on small-molecule microarray, primary screen, biochemical, 635/667 nm fluorescence (AID 1095); settings: 635 nm fluorescence, higher = more signal;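 note: score merges 667 nm feature fluorescence with signal to noise over triplicate slides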
Could you keep your reply to the number by itself?

Previously resolved entries follow.
O=C(O)[C@H]1C[C@H]2C(=O)NCC(=O)N2[C@H]1c1ccc(O)cc1; 0.884
Cc1ccc(S[C@]2(C(=O)NC3CC3)CC(=O)N(Cc3ccccc3)[C@@H]2c2ccc(CO)cc2)cc1; -0.347
C=C(CCCC)/C(=C/C[C@H](OC(C)=O)c1ccc(CO)o1)c1cnc2ccccc2c1; 1.12
COCCOC(=O)N1C(=O)[C@@]2(c3cc(C#CCC(C(=O)OC)C(=O)OC)ccc31)[C@H](C(=O)N1CCCCCCC1)[C@H]1C(=O)O[C@H](c3ccccc3)[C@H](c3ccccc3)N1[C@@H]2c1ccc(OCCO)cc1; 2.02
CC(=O)Nc1cc(Br)ccc1C(=O)O; 0.201
O=C1[C@]2(CO)C=C(Br)[C@@H](C[C@@H]2c2ccccc2)[C@@]12CO2; 0.0401
O=C1O[C@@H](c2ccccc2)[C@@H](c2ccccc2)N2[C@@H](c3ccc(O)cc3)[C@]3(C(=O)Nc4ccc(C#CC5=CCCCC5)cc43)[C@@H](C(=O)O)[C@H]12; 0.878
O=C1OCCC/C=C\[C@H]2OC34C=CCN(Cn5nnc6ccccc65)C(=O)[C@H]3N(CCCCCO)C(=O)[C@@H]4C12 (stereo partly specified); -0.808

Ask | # value lookup — system Noggin (protein binding on small-molecule microarray), readout composite z-score, item COC(=O)c1ccc(OC)c(/C=C\CC(OC(C)=O)c2ccccc2)c1 (stereo unspecified)
Reply | 0.0928

Ask | # value lookup — system Noggin (protein binding on small-molecule microarray), readout composite z-score, item `COC(=O)[C@@]1(Cc2ccccc2)[C@H]2c3cc(C(=O)N(C)C)n(Cc4c(-c5ccccc5)noc4C)c3C[C@H]2CN1C(=O)c1ccccc1`
Reply | -0.452

Ask | # value lookup — system Noggin (protein binding on small-molecule microarray), readout composite z-score, item `[N-]=[N+]=Nc1ccccc1C[C@]1(C(=O)NCCN2CCOCC2)N=C(c2ccc(OCCCO)cc2)O[C@H]1c1ccccc1`
Reply | 0.599

Ask | # value lookup — system Noggin (protein binding on small-molecule microarray), readout composite z-score, item `CC(C)C[C@@H]1NC(=O)[C@H]2C[C@@H](C(=O)NCCCCCNC(=O)CS)[C@@H](c3cccc(OCCO)c3)N2C1=O`
Reply | 1.98

Ask | # value lookup — system Noggin (protein binding on small-molecule microarray), readout composite z-score, item `CCCC[C@H]1OB(O)C[C@H]2C1=C(C)C[C@H]1C(=O)N(Cc3ccccc3)C(=O)[C@H]12`
Reply | 0.919

Ask | # value lookup — system Noggin (protein binding on small-molecule microarray), readout composite z-score, item `O=C1O[C@@H](c2ccccc2)[C@@H](c2ccccc2)N2[C@@H](c3ccc(OCCO)cc3)[C@]3(C(=O)Nc4ccccc43)[C@@H](C(=O)Nc3nc4ccccc4s3)[C@H]12`
Reply | 1.3

Ask | # value lookup — system Noggin (protein binding on small-molecule microarray), readout composite z-score, item COc1ccc(C(O)C2C=CC3C(=O)N(C)C(=O)C3N2Nc2ccccc2)cc1OCc1ccccc1 (stereo unspecified)
Reply | 0.102

Ask | # value lookup — system Noggin (protein binding on small-molecule microarray), readout composite z-score, item `C=CCOC(=O)[C@@H]1[C@H]2C(=O)O[C@H](c3ccccc3)[C@H](c3ccccc3)N2[C@H](c2ccc(OCCOC(=O)[C@@H]3C[C@@H]4C(=O)N[C@@H](Cc5ccccc5)C(=O)N4[C@@H]3c3cccc(OCCO)c3)cc2)[C@@]12C(=O)Nc1ccc(I)cc12`
Reply | 1.5

Ask | # value lookup — system Noggin (protein binding on small-molecule microarray), readout composite z-score, item `C=C[C@@H](COC(C)=O)N(Cc1ccccc1[N+](=O)[O-])S(=O)(=O)c1ccc(Br)cc1`
Reply | 1.1

Ask | # value lookup — system Noggin (protein binding on small-molecule microarray), readout composite z-score, item [N-]=[N+]=NCc1ccccc1C[C@]1(C(=O)NCC(O)CO)N=C(c2ccc(OCCCO)cc2)O[C@H]1c1ccccc1N=[N+]=[N-] (stereo partly specified)
Reply | -0.761

Ask | # value lookup — system Noggin (protein binding on small-molecule microarray), readout composite z-score, item CC(=O)C1=CCC(c2ccccc2)N(S(=O)(=O)c2ccc(C)cc2)C1 (stereo unspecified)
Reply | 0.229

Ask | # value lookup — system Noggin (protein binding on small-molecule microarray), readout composite z-score, item `COc1ccc([Si](C)(C)[C@@H]2[C@@H](CCn3cc([C@H](O)c4ccccc4)nn3)O[C@]3(C(=O)N(Cc4cccc(N5CCOC5=O)c4)c4ccccc43)[C@H]2C)cc1`
Reply | -0.89

Ask | # value lookup — system Noggin (protein binding on small-molecule microarray), readout composite z-score, item `COC(=O)[C@@]1(Cc2ccccc2N=[N+]=[N-])COC(c2ccc(OCCCO)cc2)=N1`
Reply | -0.353
